Biological target: Human IL-17AF (Homo sapiens, UniProt Q16552+Q96PD4)
Sequence (Q16552 24-155): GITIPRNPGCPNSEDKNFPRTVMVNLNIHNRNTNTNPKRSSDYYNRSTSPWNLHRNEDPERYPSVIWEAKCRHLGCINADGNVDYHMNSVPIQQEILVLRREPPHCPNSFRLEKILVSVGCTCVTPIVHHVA
Sequence (Q96PD4 31-163): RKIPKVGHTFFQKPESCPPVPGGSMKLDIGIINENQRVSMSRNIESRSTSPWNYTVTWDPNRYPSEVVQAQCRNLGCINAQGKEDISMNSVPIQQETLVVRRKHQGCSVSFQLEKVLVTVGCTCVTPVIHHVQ
Test: IL-17AF ELISA (competitive ELISA, IL-17AF/IL-17Ra receptor-ligand binding)
Conditions: human IL-17AF coated plate, human IL-17Ra, read-out: IC50, inhibitory activity of compounds on human IL-17AF
Form field: IC50 (one value per entry).

See these solved cases before continuing.
> print(dat)
                                   compound                         target.under.test  measured.value
1  CCn1nccc1C(=O)N[C@H](C(=O)Nc1ccc2c(c1)COCCc1n[nH]c(C)c1-2)C1c2ccc(F)cc2OCC12CC2 (stereo partly drawn)  Human IL-17AF (Homo sapiens, UniProt Q16552+Q96PD4)   100 to 500 nM
2  Cc1[nH]nc2c1-c1cc(F)c(NC(=O)[C@@H](NC(=O)c3ccnn3C(C)C)C(C3CC3)C3CC3)cc1CN(C(C)C)CC2  Human IL-17AF (Homo sapiens, UniProt Q16552+Q96PD4)   100 to 500 nM
3  CCc1nocc1C(=O)N[C@H](C(=O)Nc1cc2c(cn1)-c1c(n[nH]c1C)CCN(C1CC1)C2)C(C1CC1)C1CC1  Human IL-17AF (Homo sapiens, UniProt Q16552+Q96PD4)   100 to 500 nM

stdin: Entry Cc1[nH]nc2c1-c1cc(F)c(NC(=O)[C@@H](NC(=O)c3ccnn3CCN3CCOCC3)C(C3CC3)C3CC3)cc1COCC2 has what IC50?
stdout: 100 to 500 nM

stdin: Entry Cc1[nH]nc2c1-c1ccc(NC(=O)[C@@H](NC(=O)c3ccnn3C3CC3)C(C3CC3)C3CC3)cc1COCC2 has what IC50?
stdout: 100 to 500 nM

stdin: Entry Cc1[nH]nc2c1-c1cc(F)c(NC(=O)[C@@H](NC(=O)c3ccnn3C(C)C)C(C3CC3)C3CC3)cc1CN(C(C)C)C(=O)C2 has what IC50?
stdout: ≤ 100 nM

====

Molecular target: Human IL-17AF (Homo sapiens, UniProt Q16552+Q96PD4)
Assay: IL-17AF ELISA (competitive ELISA, IL-17AF/IL-17Ra receptor-ligand binding)
Settings: human IL-17AF coated plate, human IL-17Ra, read-out: IC50, inhibitory activity of compounds on human IL-17AF
pIC50: −log10 of the molar value.
Form field: pIC50 (one value per entry).

See these solved cases before continuing.
MOLECULE	PARAMETER_MEASURED	MEASURED_VALUE
Cc1[nH]nc2c1-c1cc(F)c(NC(=O)[C@@H](NC(=O)/C(F)=C\C(C)C)C(C3CC3)C3CC3)cc1COCC2 [compound 229]	pIC50	6.30 to 7.00
COCC(COC)n1nccc1C(=O)N[C@H](C(=O)Nc1cc2c(cc1F)-c1c(n[nH]c1C)CCOC2)C(C1CC1)C1CC1 [compound 99]	pIC50	6.30 to 7.00
Cc1[nH]nc2c1-c1cc(F)c(NC(=O)[C@@H](NC(=O)c3ccnn3C(C)C)C(C3CC3)C3CC3)cc1CN(C(C)C(F)(F)F)C(=O)C2 (single isomer, unassigned) [compound 186b]	pIC50	6.30 to 7.00
CCN1CCc2n[nH]c(C)c2-c2cc(F)c(NC(=O)[C@@H](NC(=O)c3ccnn3C(C)C)C(C3CC3)C3CC3)cc2C1 [compound 156]	pIC50	6.30 to 7.00
Cc1[nH]nc2c1-c1cnc(NC(=O)[C@@H](NC(=O)c3ccnn3C(C)C)C(C3CC3)C3CC3)cc1CN(CC(F)F)C(=O)C2 [compound 192]	pIC50	≥ 7.00

Let us examine a further case.
stdin: What value of pIC50 on Human IL-17AF (Homo sapiens, UniProt Q16552+Q96PD4) does CCc1nocc1C(=O)N[C@H](C(=O)Nc1cc2c(cn1)-c1c(n[nH]c1C)CCOC2)C(C1CC1)C1CC1 [compound 240] have?
stdout: 6.30 to 7.00
